B1: Spectrin alpha chain, erythrocytic 1, residues 979 to 1036; numbered along this chain, P02549 (parent)
chain: EQRVMALYDFQARSPREVTMKKGDVLTLLSSINKDWWKVEAADHQGIVPAVYVRRLAH

variants of: B1; assay: abundance fitness (aPCA) (normalised: wild type 0, dead -1); higher = more abundant; growth selection in yeast, the domain comes from the species named; conditions: Homo sapiens
observable: abundance fitness
Output spec: single numeric token, no unit.

A selection of reference data follows.
Quick one: abundance fitness for EQRVMALYDFQARSPREVEMKKGDVLTLLSSINKDWWKVEAADHQGIVPAVYVRRLAH [T19E] ?
-0.73

Need abundance fitness, item EQRVMALYDFQARSPRFVTMKKGDVLTLLSSINKDWWKVEAADHQGIVPAVYVRRLAH [E17F]
-0.594

---
Requested read-out: abundance fitness. Entry: EQRVMALYDFQARSPREVTMKKGDVLTLLLSINKDWWKVEAADHQGIVPAVYVRRLAH [S30L]
-1.18

What does the record list as abundance fitness for EQRVMALYDFQARSPREVTMKKGDVLTLLSQINKDWWKVEAADHQGIVPAVYVRRLAH [S31Q] ?
0.225

I'd like to know its abundance fitness. The variant in question is EQRVMALYDFQARSPREVTMKKGDVLTLLVSINKDWWKVEAADHQGIVPAVYVRRLAH [S30V]
-0.964

abundance fitness lookup needed for EQRVMALYDFQARSPREVTMKKGDVLTLLSSINKTWWKVEAADHQGIVPAVYVRRLAH [D35T] , thanks.
-0.506

Given the variant EQRVMALYDFQARSPREVTMKKGDVLTLLSSINKDWWKVEAADHQGIVVAVYVRRLAH [P49V] , what is its reported abundance fitness?
-0.797

Requested read-out: abundance fitness. Entry: EQRVMALYDFQARSPREVTMKKGDILTLLSSINKDWWKVEAADHQGIVPAVYVRRLAH [V25I]
-0.099

Entry EQWVMALYDFQARSPREVTMKKGDVLTLLSSINKDWWKVEAADHQGIVPAVYVRRLAH [R3W] : reported abundance fitness = ?
-0.209

The measured values listed here are drawn from the Human Domainome abundance scans (Beltran et al. 2025).
